# experimental_details: Fluorescence assay protocol (absorption, excitation and emission scans in MeOH)
# Format: physicochemical
Quick reference for Mol Extinction among some compounds

{"columns": ["compound", "Mol Extinction"],
 "data": [
  ["CCCCCCCN(C)c1cc(OC)c2c(c1)oc(=O)c1ccc(C)cc12 [Compound 14]", "11400 mol⁻¹ cm⁻¹ L⁻¹"],
  ["CCCCCCCN(C)c1cc(O)c2c3c(c(=O)oc2c1)CCC(C)C3 (stereo not shown) [Compound 6]", "18000 mol⁻¹ cm⁻¹ L⁻¹"],
  ["CCCCCCCN(C)c1cc(O)c2c(c1)oc(=O)c1ccc(OC)cc12 [Compound 16]", "21800 mol⁻¹ cm⁻¹ L⁻¹"],
  ["CCCCCCCN(C)c1cc(O)c2c(c1)oc(=O)c1ccc(O)cc12 [Compound 15]", "23400 mol⁻¹ cm⁻¹ L⁻¹"],
  ["CCCCCCN(C)c1cc(O)c2c3c(c(=O)oc2c1)CCC(C)C3 (stereo not shown) [Compound 5]", "18600 mol⁻¹ cm⁻¹ L⁻¹"],
  ["CCCCCCCN(C)c1cc(O)c2c(c1)oc(=O)c1ccc(C)cc12 [Compound 13]", "22700 mol⁻¹ cm⁻¹ L⁻¹"],
  ["CCCCCC(C)Oc1cc(O)c2c3c(c(=O)oc2c1)CCC(C)C3 (stereo not shown) [Compound 2]", "13900 mol⁻¹ cm⁻¹ L⁻¹"]
]}

* * *

# subject_of_test: CB2 receptor (Mus musculus, UniProt P47936)
# Construct: membranes were prepared from frozen mouse spleen; from tissue; host or cells: mouse spleen
# Sequence (P47936 whole entry): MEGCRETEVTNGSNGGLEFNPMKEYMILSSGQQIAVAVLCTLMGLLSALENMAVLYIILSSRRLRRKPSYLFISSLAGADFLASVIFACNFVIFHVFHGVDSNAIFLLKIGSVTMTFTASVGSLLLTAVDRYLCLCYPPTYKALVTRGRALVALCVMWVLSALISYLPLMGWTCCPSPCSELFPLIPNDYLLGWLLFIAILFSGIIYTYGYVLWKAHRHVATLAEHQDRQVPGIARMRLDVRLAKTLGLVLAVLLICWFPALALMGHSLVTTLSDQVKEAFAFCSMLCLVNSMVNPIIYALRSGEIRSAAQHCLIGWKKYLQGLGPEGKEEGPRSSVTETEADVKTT
# experimental_details: CB2 receptor binding assay ([3H] CP-55,940 displacement, mouse spleen membranes)
# applied_conditions: mouse spleen membranes, [3H] CP-55,940; read-out: CB2 Ki
# Experimental: Membranes, previously frozen at −80° C., were thawed on ice. To the stirred suspension was added three volumes of TME (25 mM Tris-HCl buffer, 5 mM MgCl2 and 1 mM EDTA) at a pH 7.4. The suspension was incubated at 4° C. for 30 min. […] The treated membranes were subsequently used in the binding assay described below. […] Radioactivity was detected using MicroScint 20 scintillation cocktail added directly to the dried filterplates, and the filterplates were counted using a Packard Instruments Top-Count. […]
pKi: −log10 of the molar value.
Class YES: pKi at least 8. Class NO: pKi below 8.

{"columns": ["compound", "group_label"],
 "data": [
  ["CCCCCC(C)Oc1cc(O)c2c3c(c(=O)oc2c1)CCC(C)C3 (stereo not shown)", "NO"],
  ["CCCCCCCN(C)c1cc(O)c2c3c(c(=O)oc2c1)CCC(C)C3 (stereo not shown)", "NO"],
  ["CCCCCCCN(C)c1cc(O)c2c(oc(=O)c3ccc(C)cc32)c1Br", "YES"],
  ["CCCCCCC(C)Oc1cc(OC)c2c3c(c(=O)oc2c1)CCC(=O)C3 (stereo not shown)", "NO"],
  ["CCCCCCCN(C)c1cc(OC)c2c(c1)oc(=O)c1ccc(C(F)(F)F)cc12", "NO"],
  ["CCCCCCN(C)c1cc(O)c2c3c(c(=O)oc2c1)CCC(C)C3 (stereo not shown)", "NO"],
  ["CCCCCCCN(C)c1cc2oc(=O)c3ccc(C)cc3c2c(O)c1Br", "YES"],
  ["CCCCCCCN(C)c1cc(O)c2c(c1)oc(=O)c1ccc(O)cc12", "NO"],
  ["CCCCCCC(C)(C)c1cc(O)c2c(c1)oc(=O)c1cc(O)c(O)cc12", "NO"],
  ["CCCCCCC(C)Oc1cc(OC(=O)CCCCN2CCOCC2)c2c3c(c(=O)oc2c1)CCC(=O)C3 (stereo not shown)", "YES"],
  ["CCCCCCN(C)c1cc(O)cc2oc(=O)c3c(c12)CC(C)CC3 (stereo not shown)", "NO"],
  ["CCCCCCC(C)(C)c1cc(OC)c2c(c1)oc(=O)c1ccncc12", "NO"],
  ["CCCCCCCN(C)c1cc(O)c2c(c1)oc(=O)c1ccc(C(F)(F)F)cc12", "NO"],
  ["CCCCCCCN(C)c1cc(OC)c2c(c1)oc(=O)c1ccc(C)cc12", "NO"],
  ["CCCCCCCC(C)(C)c1cc(OC)c2c3c(c(=O)oc2c1)CCC(=O)C3", "YES"],
  ["CCCCCCc1cc2c3c(c(=O)oc2cc1O)CCC(C)C3 (stereo not shown)", "NO"]
]}
